system: SNB-75; assay: NCI tumour cell line growth inhibition, 48 h
Activity calls are given as the source filed them. Cut-off read from the data, not from the text of the source: active = GI50 up to about 1.1 µM and inactive = higher.
Would you mind answering with one of these outcomes? active, inactive

Look over these answered cases.
- compound: "Cc1ncc([N+](=O)[O-])n1CCNC(=O)CCn1ccnc1[N+](=O)[O-]"
  assigned.class: "inactive"
- compound: "COc1cc(O)c2c(c1)C(=O)c1cc3c(c(O)c1C2=O)C(OC1OC(C)C(OC)C(O)C1OC)C(OC)C(C)(O)C3=O (stereo not drawn)"
  assigned.class: "inactive"
- compound: "COc1cc(C2c3cc4c(cc3OC(Nc3ccc(C(=O)O)cc3)C2C)OCO4)cc(OC)c1OC (stereo not drawn)"
  assigned.class: "active"
- compound: "CC(C)C(/C=C/c1ccc(Br)cc1)=N\\NC(N)=O"
  assigned.class: "inactive"
- compound: "CC[C@H](C)C1=C(OC(C)=O)[N@+]2([O-])Oc3ccc(-c4c(OC(C)=O)c(OC(C)=O)c(-c5ccc(OC(C)=O)cc5)c(OC(C)=O)c4OC(C)=O)cc3O[C@]2([C@@H](C)CC)C(=O)N1OC(C)=O"
  assigned.class: "inactive"

In: What call does the record list for "CCOc1ccccc1NC(=O)C(=O)CC(=O)c1sc(Nc2nnc(-c3ccc(Cl)c(Cl)c3)o2)nc1C" ?
Out: inactive

In: Record request — test call for COc1ccc(N2C(=O)CSC2c2cc3cc(Br)ccc3nc2Cl)cc1 (stereo not drawn)
Out: inactive

In: # outcome recorded in this test, key = "N#C/C(=C\c1ccc2[nH]ccc2c1)C(=O)NCCCCNC(=O)/C(C#N)=C/c1ccc2[nH]ccc2c1"
Out: inactive
